The measured values listed here are drawn from PubChem BioAssay AID662.

- test.summary: Cell signaling CRE-BLA (Fsk stim)
- assay.conditions: CHO CRE-bla reporter (cAMP response element driving beta-lactamase), forskolin EC10, beta-lactamase ratio; series mostly up to 38.2 µM
Hit rate of the full screen: of about 71,000 compounds, about 1,800 (2.5%) were called active. Roughly 26% stayed inconclusive and do not appear here. The call rests on the fitted dose curve; in most records, active means well fitted activation curve with a large enough effect in the signal ratio, with a control signal flat (not every such curve was filed as active); inconclusive means small, poorly fitted or top-dose-only effect, or effect the other way, or a change in a side signal; inactive means flat fitted curve, though single readings scatter; the % refers to the signal ratio. This excerpt belongs to a sample that is enriched for actives.
A correct response names exactly one class from True for active, False for inactive

What outcome does the record of this test show for `O=C(OCc1nnc(-c2ccccc2)o1)c1ccc2c(c1)C(=O)N(CCc1ccccc1)C2=O` ?
False

What outcome does the record of this test show for `CCOC(=O)N1CCN(C(=O)C2CCN(c3ncnc4c3sc3cccc(F)c34)CC2)CC1` ?
False

What outcome does the record of this test show for `CCOC(=O)c1ccc(-n2c(C)nc3c(cnn3-c3ccccc3C)c2=O)cc1` ?
False

What outcome does the record of this test show for `CCOc1ccc2nc(N3CCCN(C(=O)Nc4ccccc4C)CC3)c(C#N)cc2c1` ?
False

What outcome does the record of this test show for `CC(C)CCNc1nc(N2CCCC2)c2c(c1C#N)CCN(C)C2` ?
False

What outcome does the record of this test show for `CCn1cc(C(=O)N2CCN(C3CCCCC3)CC2)c2cc(OC)c(OC)cc2c1=O` ?
True

What outcome does the record of this test show for `CC(C)(C)OC(=O)c1c(N)n(CCCN2CCCC2=O)c2nc3ccccc3nc12` ?
True

What outcome does the record of this test show for `O=C(OCCO)c1cc(Cl)c(C(=O)OCCO)cc1Cl` ?
False

What outcome does the record of this test show for `O=C1c2ccccc2-c2ncnc3c(N4CCOCC4)cc(N4CCOCC4)c1c23` ?
True

What outcome does the record of this test show for `C[C@]1(C(=O)NCCc2c[nH]c3ccccc23)C=C[C@@H](Cc2ccccc2)N1C(=O)c1ccccc1` ?
False

What outcome does the record of this test show for `c1ccc(-n2ncc(-c3nn[nH]n3)n2)cc1` ?
False

What outcome does the record of this test show for COCCOC(=O)C1=C(C)NC(=O)CC1c1cc2c(cc1Br)OCO2 (centres undefined) ?
False

What outcome does the record of this test show for `COc1ccc(-c2noc(-c3cccc(OC)c3OC)n2)cc1OC` ?
True

What outcome does the record of this test show for `CCOc1cc2[nH]c(=S)n(CCCN3CCCC3=O)c(=O)c2cc1OCC` ?
False

What outcome does the record of this test show for `COc1ccc(-c2csc(N3CCN(Cc4ccc5c(c4)OCO5)CC3)n2)cc1` ?
False

What outcome does the record of this test show for `Cc1c(C)c2c(c(C)c1O)CC[C@@](C)(CN1CCN(c3cc(N4CCCC4)nc(N4CCCC4)n3)CC1)O2` ?
False

What outcome does the record of this test show for `c1ccc2c(Nc3ccncc3)nc(-c3ccc4c(c3)OCO4)nc2c1` ?
True

What outcome does the record of this test show for `Cc1cnc(CNc2nc(-c3cccnc3)nc3ccccc23)cn1` ?
True

What outcome does the record of this test show for `CCn1c(SCC(=O)Nc2cc(C)c(Cl)cc2OC)nnc1-c1ccco1` ?
True

What outcome does the record of this test show for `CC(C)(C)NC(=O)c1cc(NC(=O)c2ccco2)cc(NC(=O)c2ccco2)c1` ?
False

What outcome does the record of this test show for `c1cncc(CNc2ccnc(-c3ccc4c(c3)OCO4)n2)c1` ?
False

What outcome does the record of this test show for `CCC[C@@H]1C[C@@]1(CCC)[C@@H](NC(=O)c1ccccc1)c1ccc(C(=O)OC)cc1` ?
False

What outcome does the record of this test show for `COC(=O)[C@@]1(Cc2ccc(OC)cc2)[C@H]2c3cc(C(=O)N4CCCC4)n(Cc4ccc(OC(F)(F)F)cc4)c3C[C@H]2CN1C(=O)c1ccccc1` ?
False

What outcome does the record of this test show for `Cc1cc(C)c2c(n1)nn1c(-n3ccnc3)cc(C)nc21` ?
True

What outcome does the record of this test show for `CCOC(=O)C1CCN(c2ncnc3c2oc2ccc(Br)cc23)CC1` ?
True

What outcome does the record of this test show for `Cc1cc(C)c2nc(N3CCCC3)c(C#N)cc2c1` ?
True

What outcome does the record of this test show for `CCOC(=O)c1cc(-c2nnc(-c3cc(OC)c(OC)c(OC)c3)o2)c(C)nc1C` ?
False

What outcome does the record of this test show for `Cc1ccc(C(=O)OCC(=O)NCc2ccc3c(c2)OCO3)s1` ?
False

What outcome does the record of this test show for CC1C(c2ccccc2)=[N+]([O-])C2(CCCC2)N1O (centres undefined) ?
False
